test system: HeLa Kyoto; assay: thermal stability score vs G1/S (z-score of summed log2 fold changes over temperatures); higher = more thermally stable than in G1/S; conditions: cell cycle stage: early G1 (4.5 h after nocodazole release)
Dear colleague, classification is by thermal stability score, with ranges listed here: class 1 = under -2, class 2 = from -2 up to 1, class 3 = 1 and over

MVRPVRHKKPVNYSQFDHSDSDDDFVSATVPLNKKSRTAPKELKQDKPKPNLNNLRKEEIPVQEKTPKKRLPEGTFSIPASAVPCTKMALDDKLYQRDLEVALALSVKELPTVTTNVQNSQDKSIEKHGSSKIETMNKSPHISNCSVASDYLDLDKITVEDDVGGVQGKRKAASKAAAQQRKILLEGSDGDSANDTEPDFAPGEDSEDDSDFCESEDNDEDFSMRKSKVKEIKKKEVKVKSPVEKKEKKSKSKCNALVTSVDSAPAAVKSESQSLPKKVSLSSDTTRKPLEIRSPSAESKKPKWVPPAASGGSRSSSSPLVVVSVKSPNQSLRLGLSRLARVKPLHPNATST [RAD51AP1]; class 3
MDALQLANSAFAVDLFKQLCEKEPLGNVLFSPICLSTSLSLAQVGAKGDTANEIGQVLHFENVKDVPFGFQTVTSDVNKLSSFYSLKLIKRLYVDKSLNLSTEFISSTKRPYAKELETVDFKDKLEETKGQINNSIKDLTDGHFENILADNSVNDQTKILVVNAAYFVGKWMKKFSESETKECPFRVNKTDTKPVQMMNMEATFCMGNIDSINCKIIELPFQNKHLSMFILLPKDVEDESTGLEKIEKQLNSESLSQWTNPSTMANAKVKLSIPKFKVEKMIDPKACLENLGLKHIFSEDTSDFSGMSETKGVALSNVIHKVCLEITEDGGDSIEVPGARILQHKDELNADHPFIYIIRHNKTRNIIFFGKFCSP [SERPINB5]; class 3
MPKGGRKGGHKGRARQYTSPEEIDAQLQAEKQKAREEEEQKEGGDGAAGDPKKEKKSLDSDESEDEEDDYQQKRKGVEGLIDIENPNRVAQTTKKVTQLDLDGPKELSRREREEIEKQKAKERYMKMHLAGKTEQAKADLARLAIIRKQREEAARKKEEERKAKDDATLSGKRMQSLSLNK [PDAP1]; class 1
MESNKDEAERCISIALKAIQSNQPDRALRFLEKAQRLYPTPRVRALIESLNQKPQTAGDQPPPTDTTHATHRKAGGTDAPSANGEAGGESTKGYTAEQVAAVKRVKQCKDYYEILGVSRGASDEDLKKAYRRLALKFHPDKNHAPGATEAFKAIGTAYAVLSNPEKRKQYDQFGDDKSQAARHGHGHGDFHRGFEADISPEDLFNMFFGGGFPSSNVHVYSNGRMRYTYQQRQDRRDNQGDGGLGVFVQLMPILILILVSALSQLMVSSPPYSLSPRPSVGHIHRRVTDHLGVVYYVGDTFSEEYTGSSLKTVERNVEDDYIANLRNNCWKEKQQKEGLLYRARYFGDTDMYHRAQKMGTPSCSRLSEVQASLHG [DNAJB12]; class 3
MGDHAWSFLKDFLAGGVAAAVSKTAVAPIERVKLLLQVQHASKQISAEKQYKGIIDCVVRIPKEQGFLSFWRGNLANVIRYFPTQALNFAFKDKYKQLFLGGVDRHKQFWRYFAGNLASGGAAGATSLCFVYPLDFARTRLAADVGKGAAQREFHGLGDCIIKIFKSDGLRGLYQGFNVSVQGIIIYRAAYFGVYDTAKGMLPDPKNVHIFVSWMIAQSVTAVAGLVSYPFDTVRRRMMMQSGRKGADIMYTGTVDCWRKIAKDEGAKAFFKGAWSNVLRGMGGAFVLVLYDEIKKYV [SLC25A4]; class 1

(Q) Class for MPHIDNDVKLDFKDVLLRPKRSTLKSRSEVDLTRSFSFRNSKQTYSGVPIIAANMDTVGTFEMAKVLCKFSLFTAVHKHYSLVQWQEFAGQNPDCLEHLAASSGTGSSDFEQLEQILEAIPQVKYICLDVANGYSEHFVEFVKDVRKRFPQHTIMAGNVVTGEMVEELILSGADIIKVGIGPGSVCTTRKKTGVGYPQLSAVMECADAAHGLKGHIISDGGCSCPGDVAKAFGAGADFVMLGGMLAGHSESGGELIERDGKKYKLFYGMSSEMAMKKYAGGVAEYRASEGKTVEVPFKGDVEHTIRDILGGIRSTCTYVGAAKLKELSRRTTFIRVTQQVNPIFSEAC [GMPR2] ?
(A) class 2

(Q) Class for MFRGLSSWLGLQQPVAGGGQPNGDAPPEQPSETVAESAEEELQQAGDQELLHQAKDFGNYLFNFASAATKKITESVAETAQTIKKSVEEGKIDGIIDKTIIGDFQKEQKKFVEEQHTKKSEAAVPPWVDTNDEETIQQQILALSADKRNFLRDPPAGVQFNFDFDQMYPVALVMLQEDELLSKMRFALVPKLVKEEVFWRNYFYRVSLIKQSAQLTALAAQQQAAGKEEKSNGREQDLPLAEAVRPKTPPVVIKSQLKTQEDEEEISTSPGVSEFVSDAFDACNLNQEDLRKEMEQLVLDKKQEETAVLEEDSADWEKELQQELQEYEVVTESEKRDENWDKEIEKMLQEEN [SYAP1] ?
(A) class 2

(Q) Class for MALLVRVLRNQTSISQWVPVCSRLIPVSPTQGQGDRALSRTSQWPQMSQSRACGGSEQIPGIDIQLNRKYHTTRKLSTTKDSPQPVEEKVGAFTKIIEAMGFTGPLKYSKWKIKIAALRMYTSCVEKTDFEEFFLRCQMPDTFNSWFLITLLHVWMCLVRMKQEGRSGKYMCRIIVHFMWEDVQQRGRVMGVNPYILKKNMILMTNHFYAAILGYDEGILSDDHGLAAALWRTFFNRKCEDPRHLELLVEYVRKQIQYLDSMNGEDLLLTGEVSWRPLVEKNPQSILKPHSPTYNDEGL [UQCC1] ?
(A) class 2

(Q) Class for MTSMTQSLREVIKAMTKARNFERVLGKITLVSAAPGKVICEMKVEEEHTNAIGTLHGGLTATLVDNISTMALLCTERGAPGVSVDMNITYMSPAKLGEDIVITAHVLKQGKTLAFTSVDLTNKATGKLIAQGRHTKHLGN [ACOT13] ?
(A) class 2

----------
test system: HeLa Kyoto; assay: solubility change mitosis vs G1/S (difference of NP-40 vs SDS log2 ratios) (log2 ratio difference); higher = more soluble in mitosis
Parameter threshold = 0.3. Response is 1 (yes) when solubility change mitosis (log2) meets or exceeds it, else 0 (no).

Consider the worked cases shown below.
MGTRDDEYDYLFKVVLIGDSGVGKSNLLSRFTRNEFNLESKSTIGVEFATRSIQVDGKTIKAQIWDTAGQERYRAITSAYYRGAVGALLVYDIAKHLTYENVERWLKELRDHADSNIVIMLVGNKSDLRHLRAVPTDEARAFAEKNNLSFIETSALDSTNVEEAFKNILTEIYRIVSQKQIADRAAHDESPGNNVVDISVPPTTDGQKPNKLQCCQNL [RAB11B]; 0 (no)
MPFDFRRFDIYRKVPKDLTQPTYTGAIISICCCLFILFLFLSELTGFITTEVVNELYVDDPDKDSGGKIDVSLNISLPNLHCELVGLDIQDEMGRHEVGHIDNSMKIPLNNGAGCRFEGQFSINKVPGNFHVSTHSATAQPQNPDMTHVIHKLSFGDTLQVQNIHGAFNALGGADRLTSNPLASHDYILKIVPTVYEDKSGKQRYSYQYTVANKEYVAYSHTGRIIPAIWFRYDLSPITVKYTERRQPLYRFITTICAIIGGTFTVAGILDSCIFTASEAWKKIQLGKMH [ERGIC1]; 0 (no)
MREYKLVVLGSGGVGKSALTVQFVQGIFVEKYDPTIEDSYRKQVEVDCQQCMLEILDTAGTEQFTAMRDLYMKNGQGFALVYSITAQSTFNDLQDLREQILRVKDTEDVPMILVGNKCDLEDERVVGKEQGQNLARQWCNCAFLESSAKSKINVNEIFYDLVRQINRKTPVEKKKPKKKSCLLL [RAP1A]; 0 (no)
MVEADRPGKLFIGGLNTETNEKALETVFGKYGRIVEVLLIKDRETNKSRGFAFVTFESPADAKDAARDMNGKSLDGKAIKVEQATKPSFERGRHGPPPPPRSRGPPRGFGAGRGGSGGTRGPPSRGGHMDDGGYSMNFNMSSSRGPLPVKRGPPPRSGGPSPKRSAPSGLVRSSSGMGGRAPLSRGRDSYGGPPRREPLPSRRDVYLSPRDDGYSTKDSYSSRDYPSSRDTRDYAPPPRDYTYRDYGHSSSRDDYPSRGYGDRDGYGRDRDYSDHPSGGSYRDSYESYGNSRSAPLTRGPPPSYGGSSRYDDYSSSRDGYGGSRDSYSSSRSDLYSSCDRVGRQERGLPPSVERGYPSSRDSYSSSSRGAPRGAGPGGSRSDRGGGRSRY [RBMXL1]; 1 (yes)
MPKVKRSRKAPPDGWELIEPTLDELDQKMREAETEPHEGKRKVESLWPIFRIHHQKTRYIFDLFYKRKAISRELYEYCIKEGYADKNLIAKWKKQGYENLCCLRCIQTRDTNFGTNCICRVPKSKLEVGRIIECTHCGCRGCSG [BUD31]; 0 (no)

(Q) Check this sequence for solubility change mitosis (log2) at or above 0.3: MENFRKVRSEEAPAGCGAEGGGPGSGPFADLAPGAVHMRVKEGSKIRNLMAFATASMAQPATRAIVFSGCGRATTKTVTCAEILKRRLAGLHQVTRLRYRSVREVWQSLPPGPTQGQTPGEPAASLSVLKNVPGLAILLSKDALDPRQPGYQPPNPHPGPSSPPAAPASKRSLGEPAAGEGSAKRSQPEPGVADEDQTA [RPP25]
(A) 0 (no)
